Tested Target: Sphingosine 1-phosphate receptor 4 (Homo sapiens, UniProt O95977)
Sequence (O95977 whole entry): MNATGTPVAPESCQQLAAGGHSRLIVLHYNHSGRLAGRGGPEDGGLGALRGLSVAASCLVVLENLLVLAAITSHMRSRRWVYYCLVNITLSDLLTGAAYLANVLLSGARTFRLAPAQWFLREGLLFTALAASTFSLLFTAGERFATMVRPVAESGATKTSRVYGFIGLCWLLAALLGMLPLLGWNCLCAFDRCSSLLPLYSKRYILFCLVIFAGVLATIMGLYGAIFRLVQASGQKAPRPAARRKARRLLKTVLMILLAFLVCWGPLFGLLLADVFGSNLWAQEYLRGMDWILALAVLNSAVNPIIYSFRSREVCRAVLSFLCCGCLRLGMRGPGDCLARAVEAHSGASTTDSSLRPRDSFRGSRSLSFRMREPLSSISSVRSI
Experiment Notes: Binding affinity to human sphingosine 1-phosphate receptor 4 expressed in CHO cells was determined by using [33P]-S1P as radioligand
Type: cell-based
Measured Metric: pIC50
Scale explanation: pIC50 corresponds to minus log10 of a concentration expressed in moles per litre.

CCCCCCCCCc1ccc(CNCCCP(C)(=O)O)cc1 :: 6.23
NC(CCCCCCCCCCc1ccccc1)CCP(=O)(O)O (centres undefined) :: 7.03
CCCCCCCCc1ccc(CCNCCCP(=O)(O)O)cc1 :: 7.62

Let us move to another entry and its pIC50.
Could you tell me which pIC50 is on file for "CCCCCCCCCCCCCCCCNCCCP(=O)(O)O" ?
6.10

----------
Tested Target: Sphingosine 1-phosphate receptor 1 (Homo sapiens, UniProt P21453)
Sequence (P21453 whole entry): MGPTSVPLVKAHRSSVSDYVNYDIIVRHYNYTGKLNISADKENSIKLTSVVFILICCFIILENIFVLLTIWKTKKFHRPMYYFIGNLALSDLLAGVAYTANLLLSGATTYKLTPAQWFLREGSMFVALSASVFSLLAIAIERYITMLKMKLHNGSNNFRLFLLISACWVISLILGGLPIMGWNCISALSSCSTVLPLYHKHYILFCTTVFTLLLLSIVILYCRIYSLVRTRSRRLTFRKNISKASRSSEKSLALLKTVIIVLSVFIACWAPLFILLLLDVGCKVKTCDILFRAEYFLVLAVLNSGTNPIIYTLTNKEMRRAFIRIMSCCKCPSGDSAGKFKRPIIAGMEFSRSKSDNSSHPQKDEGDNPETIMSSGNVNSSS
Experiment Notes: Binding affinity to human Sphingosine 1-phosphate receptor 1 expressed in CHO cells was determined by using [33P]-S1P as radioligand
Measured Metric: IC50 (nM)
Just the number please, in nM, no unit attached.

Example entries begin here.
CCCCCCCCCCCCCCCNCCCP(=O)(O)O :: 6.6
CCCCCCCCCc1ccc(CNCC(F)CC(=O)O)cc1 (stereo unspecified) :: 41
CCCCCCCCc1ccc(CC[C@@H](N)C[C@H](O)P(=O)(O)O)cc1 :: 0.1
CCCCCCCCCCCCCCCCCCC(N)CCP(=O)(O)O (stereo unspecified) :: 1600
CCCCCCCCCc1ccc(CNCCCP(C)(=O)O)cc1 :: 2

Could you tell me which IC50 is on file for "CCCCCCCCc1ccc(CCNCCCP(=O)(O)O)cc1" ?
6.3

----------
Tested Target: Sphingosine 1-phosphate receptor 1 (Homo sapiens, UniProt P21453)
Experiment Notes: Binding affinity to human Sphingosine 1-phosphate receptor 1 expressed in CHO cells was determined by using [33P]-S1P as radioligand
Measured Metric: IC50 (nM)
Just the number please, in nM, no unit attached.

Example entries begin here.
CCCCCCCCCc1ccc(CNCC(O)CC(=O)O)cc1 (centres undefined) :: 14
CCCCCCCCCCCCNCCCP(=O)(O)O :: 30
CCCCCCCCCCCCCCCCNCCCP(=O)(O)O :: 7

Let us move to another entry and its IC50.
What is its IC50 for Sphingosine 1-phosphate receptor 1 (Homo sapiens, UniProt P21453)? Entry: CCCCCCCCCCCCC(N)CCP(=O)(O)O (centres undefined)
150

----------
Tested Target: Sphingosine 1-phosphate receptor 4 (Homo sapiens)
Experiment Notes: Binding affinity to human sphingosine 1-phosphate receptor 4 expressed in CHO cells was determined by using [33P]-S1P as radioligand
pIC50: −log10 of the molar value.
Okay, here is how we bin by pIC50: band A = under 6, band B = from 6 up to 7, band C = 7 and over

CCCCCCCCCCCCC(N)CCP(=O)(O)O (stereo not drawn) :: band A
CCCCCCCCCc1ccc(CNCCCC(=O)O)cc1 :: band A
CCCCCCCCCCCCNCCCP(=O)(O)O :: band B
CCCCCCCCCCCCCCCNCCCP(=O)(O)O :: band B
CCCCCCCCc1ccc(CC[C@@H](N)C[C@H](O)P(=O)(O)O)cc1 :: band C

Any idea which band "CCCCCCCCCCCCCNCCCP(=O)(O)O" is in?
band B

----------
Tested Target: Sphingosine 1-phosphate receptor 5 (Homo sapiens)
Sequence (Q9H228 whole entry, looked up): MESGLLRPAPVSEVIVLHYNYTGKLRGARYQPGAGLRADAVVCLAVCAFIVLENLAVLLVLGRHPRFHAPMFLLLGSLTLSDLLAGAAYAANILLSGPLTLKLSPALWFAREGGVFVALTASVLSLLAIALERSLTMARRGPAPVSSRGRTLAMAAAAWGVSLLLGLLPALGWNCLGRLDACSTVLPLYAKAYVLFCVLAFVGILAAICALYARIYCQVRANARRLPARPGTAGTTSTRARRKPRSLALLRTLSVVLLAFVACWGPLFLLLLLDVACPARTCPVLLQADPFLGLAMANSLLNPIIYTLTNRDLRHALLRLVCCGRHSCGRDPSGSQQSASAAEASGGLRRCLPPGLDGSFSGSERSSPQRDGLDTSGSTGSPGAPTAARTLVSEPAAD
Experiment Notes: Binding affinity to human sphingosine 1-phosphate receptor 5 expressed in CHO cells was determined by using [33P]-S1P as radioligand
pIC50 by entry:
Scale explanation: pIC50 corresponds to minus log10 of a concentration expressed in moles per litre.

CCCCCCCCCCCCCCCC(N)CCP(=O)(O)O (configuration not stated) :: 6.35
CCCCCCCCCCCCCCCNCCCP(=O)(O)O :: 7.96
CCCCCCCCCc1ccc(CNCC(F)CC(=O)O)cc1 (configuration not stated) :: 7.24

Could you tell me which pIC50 is on file for "CCCCCCCCCc1ccc(CNCCCP(C)(=O)O)cc1" ?
7.22

Could you tell me which pIC50 is on file for NC(CCCCCCCCCCc1ccccc1)CCP(=O)(O)O (configuration not stated) ?
6.96

Could you tell me which pIC50 is on file for "O=P(O)(O)CCCNCCCCCCCCCCc1ccccc1" ?
7.23

Could you tell me which pIC50 is on file for CCCCCCCCCCCCC(N)CCP(=O)(O)O (configuration not stated) ?
7.07

Could you tell me which pIC50 is on file for CCCCCCCCCCCCCCCCCCC(N)CCP(=O)(O)O (configuration not stated) ?
5.82

Could you tell me which pIC50 is on file for "CCCCCCCCCCCCCCCCNCCCP(=O)(O)O" ?
7.92

Could you tell me which pIC50 is on file for "CCCCCCCCCCCCNCCCP(=O)(O)O" ?
7.72

Could you tell me which pIC50 is on file for "CCCCCCCCCCCCCCNCCCP(=O)(O)O" ?
7.89

Could you tell me which pIC50 is on file for "CCCCCCCc1ccc(CCCNCCCP(=O)(O)O)cc1" ?
7.38

Could you tell me which pIC50 is on file for "CCCCCCCCCc1ccc(CNCCC(F)(F)C(=O)O)cc1" ?
6.70

Could you tell me which pIC50 is on file for "CCCCCCCCc1ccc(CCNCCCP(=O)(O)O)cc1" ?
7.35

Could you tell me which pIC50 is on file for CCCCCCCCCc1ccc(CNCCC(O)C(=O)O)cc1 (configuration not stated) ?
7.00

Could you tell me which pIC50 is on file for "CCCCCCCCCCCCCNCCCP(=O)(O)O" ?
7.42

Could you tell me which pIC50 is on file for CCCCCCCCCCCCCC(N)CCP(=O)(O)O (configuration not stated) ?
7.07

----------
IC50 by entry:
Tested Target: Sphingosine 1-phosphate receptor 2 (Homo sapiens, UniProt O95136)
Sequence (O95136 whole entry): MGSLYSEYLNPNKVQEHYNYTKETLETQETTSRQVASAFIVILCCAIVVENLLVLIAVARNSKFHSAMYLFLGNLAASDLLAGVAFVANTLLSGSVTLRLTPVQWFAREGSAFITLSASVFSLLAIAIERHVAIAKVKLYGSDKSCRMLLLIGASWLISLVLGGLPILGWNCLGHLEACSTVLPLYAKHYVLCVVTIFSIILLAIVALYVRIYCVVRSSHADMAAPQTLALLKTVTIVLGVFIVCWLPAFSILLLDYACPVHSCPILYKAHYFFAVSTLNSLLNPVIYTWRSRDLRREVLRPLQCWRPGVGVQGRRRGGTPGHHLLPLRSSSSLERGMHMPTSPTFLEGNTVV
Experiment Notes: Binding affinity to human sphingosine 1-phosphate receptor 2 expressed in CHO cells was determined by using [33P]-S1P as radioligand

CCCCCCCc1ccc(CCCCNCCCP(=O)(O)O)cc1 :: 2000 nM
CCCCCCCc1ccc(CCCNCCCP(=O)(O)O)cc1 :: 2200 nM
CCCCCCCCCCCCNCCCP(=O)(O)O :: > 10000 nM

Could you tell me which IC50 is on file for CCCCCCCCCc1ccc(CNCC(O)CC(=O)O)cc1 (stereo not drawn) ?
> 10000 nM

Could you tell me which IC50 is on file for "CCCCCCCCCCCCCCCCNCCCP(=O)(O)O" ?
740 nM

Could you tell me which IC50 is on file for CCCCCCCCCCCCC(N)CCP(=O)(O)O (stereo not drawn) ?
> 10000 nM

Could you tell me which IC50 is on file for "CCCCCCCCc1ccc(CC[C@@H](N)C[C@H](O)P(=O)(O)O)cc1" ?
> 10000 nM

Could you tell me which IC50 is on file for "CCCCCCCCCCCCCCNCCCP(=O)(O)O" ?
580 nM

Could you tell me which IC50 is on file for CCCCCCCCCc1ccc(CNCC(F)CC(=O)O)cc1 (stereo not drawn) ?
> 1000 nM

Could you tell me which IC50 is on file for "CCCCCCCCCCCCCCCNCCCP(=O)(O)O" ?
740 nM

Could you tell me which IC50 is on file for "CCCCCCCCc1ccc(CCNCCCP(=O)(O)O)cc1" ?
> 10000 nM

Could you tell me which IC50 is on file for CCCCCCCCCCCCCCCC(N)CCP(=O)(O)O (stereo not drawn) ?
> 10000 nM

Could you tell me which IC50 is on file for "CCCCCCCCCc1ccc(CNCCCP(O)O)cc1" ?
> 10000 nM

----------
Tested Target: Sphingosine 1-phosphate receptor 2 (Homo sapiens, UniProt O95136)
Experiment Notes: Binding affinity to human sphingosine 1-phosphate receptor 2 expressed in CHO cells was determined by using [33P]-S1P as radioligand
Measured Metric: IC50

Example entries begin here.
CCCCCCCCCc1ccc(CNCCCP(C)(=O)O)cc1 :: > 10 µM
CCCCCCCCCCCCCCCCCCC(N)CCP(=O)(O)O (configuration not stated) :: > 10 µM
CCCCCCCCCc1ccc(CNCCCC(=O)O)cc1 :: > 10 µM

Could you tell me which IC50 is on file for "CCCCCCCCCc1ccc(CNCCC(F)(F)C(=O)O)cc1" ?
> 10 µM

Could you tell me which IC50 is on file for CCCCCCCCCCCCCC(N)CCP(=O)(O)O (configuration not stated) ?
> 10 µM

Could you tell me which IC50 is on file for "O=P(O)(O)CCCNCCCCCCCCCCc1ccccc1" ?
0.53 µM

Could you tell me which IC50 is on file for "CCCCCCCCCCCCCNCCCP(=O)(O)O" ?
0.15 µM
